B1: PTPN9 (parent)
chain: TQHLPRECLPENLGGYVKIDLATW

variants of: B1; test: protein stability index of a GFP-peptide fusion (GPS, HEK-293T) (PSI 1-6); higher = more stable; conditions: c terminus: a fixed tail appended;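 further: lentivirally expressed fusions sorted by FACS into six bins by GFP to DsRed ratio, PSI derived from sequencing read proportions per bin multiplied by bin number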
# protein stability index >= 2 gives Satisfied, anything below gives Not satisfied

Is the recorded value of protein stability index equal to or greater than 2 for this variant? P5Y
Not satisfied

Record R6F ; criterion: protein stability index no lower than 2. Met?
Not satisfied

Dear colleague, could you confirm whether E7F has protein stability index at or above 2?
Not satisfied

Is protein stability index at least 2? Consider W24D
Satisfied

Please tell me: is the variant L13M at or over 2 in terms of protein stability index?
Satisfied

Is it the case that V17G has protein stability index reaching or exceeding 2?
Satisfied

Quick check: does G15E have protein stability index greater than or equal to 2?
Satisfied

Please indicate if the recorded protein stability index for D20V meets or exceeds 2.
Satisfied

Tell me whether protein stability index is at least 2 here: Q2W
Not satisfied

Decide: is the reported value of protein stability index for L4I equal to or greater than 2?
Not satisfied

Does the reported protein stability index for A22H fall at or above the 2 mark?
Not satisfied

Item V17H with protein stability index of 2 or above?
Satisfied

# bool: protein stability index of R6Q >= 2
Satisfied

Check if protein stability index >= 2 (inclusive). Item: P10R
Satisfied

Quick check: does N12C have protein stability index greater than or equal to 2?
Not satisfied

# bool: protein stability index of T1D >= 2
Satisfied

Tell me whether protein stability index is at least 2 here: E11C
Not satisfied

Is it the case that D20H has protein stability index reaching or exceeding 2?
Satisfied

Answer whether protein stability index of L9C is greater than or equal to 2.
Not satisfied
